Target: Human GLP-1 receptor (Homo sapiens, UniProt P43220)
Construct: The full-length cDNA was cloned in pcDNA3.1(+); expressed in transfected cells
Sequence (P43220 24-463): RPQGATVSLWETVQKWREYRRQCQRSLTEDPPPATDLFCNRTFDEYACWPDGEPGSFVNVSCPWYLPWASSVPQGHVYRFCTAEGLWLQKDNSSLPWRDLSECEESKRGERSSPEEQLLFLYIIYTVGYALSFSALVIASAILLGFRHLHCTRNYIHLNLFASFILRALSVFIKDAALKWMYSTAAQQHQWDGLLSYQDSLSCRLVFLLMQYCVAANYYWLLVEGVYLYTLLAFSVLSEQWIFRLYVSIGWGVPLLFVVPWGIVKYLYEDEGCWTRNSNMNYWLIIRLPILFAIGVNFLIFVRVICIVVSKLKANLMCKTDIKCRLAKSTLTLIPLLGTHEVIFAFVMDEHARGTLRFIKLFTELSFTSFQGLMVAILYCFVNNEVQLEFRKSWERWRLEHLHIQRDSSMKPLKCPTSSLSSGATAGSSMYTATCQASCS
Format: cell-based
Conditions: 10 μM test compound
Protocol: The novel peptidomimetics were screened for Human GLP-1 receptor (HGLP-1 R) agonist activity (in vitro), using the cAMP cell-based assay, in stably transfected CHO/human GLP1R cells. […] The trypsin was inactivated using Ham's F12 medium containing 10% NBCS and the cells were suspended in 2 ml of complete medium. […] Data is calculated as percent of control (Vehicle: water) and expressed as Mean±SD.
PARAMETER: Human GLP-1 R activity (cAMP release), % activity with respect to control (%)
Your answer should be a plain number; it is taken to be in %.

CCc1cc(OC)ccc1-c1ccc(CC(NC(=O)[C@H](CC(=O)O)NC(=O)[C@H](CO)NC(=O)[C@@H](NC(=O)C(C)(Cc2ccccc2F)NC(=O)[C@@H](NC(=O)CNC(=O)[C@H](CCC(N)=O)NC(=O)C2(NC(=O)[C@@H](N)Cc3c[nH]cn3)CC2)[C@@H](C)O)[C@@H](C)O)C(=O)NC(Cc2ccc(-c3ccccc3C)nc2)C(N)=O)cc1 (single isomer, unassigned) [compound 34] :: 99

Now look at this entry.
Query: Form field: reported Human GLP-1 R activity (cAMP release), % activity with respect to control of CCc1cc(OC)ccc1-c1ccc(CC(NC(=O)[C@H](CC(=O)O)NC(=O)[C@H](CO)NC(=O)[C@@H](NC(=O)C(C)(Cc2ccccc2F)NC(=O)[C@@H](NC(=O)CNC(=O)[C@H](CCC(N)=O)NC(=O)C(C)(C)NC(=O)[C@@H](N)Cc2c[nH]cn2)[C@@H](C)O)[C@@H](C)O)C(=O)NC(Cc2ccc(-c3ccccc3C)nc2)C(N)=O)cc1 (single isomer, unassigned) [compound 30]
Result: 99

---

Assay: Stability in human plasma
Assay type: in vitro ADME
Settings: human, plasma; 2 μM, 37° C.; read-out: half-life (t1/2) in human plasma
PARAMETER: half-life

Query: Form field: reported half-life of CCc1cc(OC)ccc1-c1ccc(CC(NC(=O)[C@H](CC(=O)O)NC(=O)[C@H](CO)NC(=O)[C@@H](NC(=O)[C@H](Cc2ccccc2)NC(=O)[C@@H](NC(=O)CNC(=O)[C@H](CCC(N)=O)NC(=O)C2(NC(=O)[C@@H](N)Cc3c[nH]cn3)CC2)[C@@H](C)O)[C@@H](C)O)C(=O)NC(Cc2ccc(-c3ccccc3C)nc2)C(N)=O)cc1 (single isomer, unassigned)
Result: > 24 h

Query: Form field: reported half-life of CCc1cc(OC)ccc1-c1ccc(CC(NC(=O)[C@H](CC(=O)O)NC(=O)[C@H](CO)NC(=O)[C@@H](NC(=O)[C@H](Cc2ccccc2)NC(=O)[C@@H](NC(=O)CNC(=O)[C@H](CCC(N)=O)NC(=O)C2(NC(=O)[C@@H](N)Cc3c[nH]cn3)CC2)[C@@H](C)O)[C@@H](C)O)C(=O)NC(Cc2ccc(-c3ccccc3C)cc2)C(N)=O)cc1 (single isomer, unassigned)
Result: > 24 h

Query: Form field: reported half-life of CCc1cc(OC)ccc1-c1ccc(CC(NC(=O)[C@H](CC(=O)O)NC(=O)[C@H](CO)NC(=O)[C@@H](NC(=O)C(C)(Cc2ccccc2F)NC(=O)[C@@H](NC(=O)CNC(=O)[C@H](CCC(N)=O)NC(=O)C2(NC(=O)[C@@H](N)Cc3c[nH]cn3)CC2)[C@@H](C)O)[C@@H](C)O)C(=O)NC(Cc2ccc(-c3ccccc3C(F)(F)F)cc2)C(N)=O)cc1 (single isomer, unassigned)
Result: > 24 h
